ASSAYED_SYSTEM: T1, integrin αVβ5 (UniProt P06756 31-992; P18084 24-719)
T1 construct: Coated on the ELISA plate
T1 sequence (P06756 31-992, chain 1 of 2): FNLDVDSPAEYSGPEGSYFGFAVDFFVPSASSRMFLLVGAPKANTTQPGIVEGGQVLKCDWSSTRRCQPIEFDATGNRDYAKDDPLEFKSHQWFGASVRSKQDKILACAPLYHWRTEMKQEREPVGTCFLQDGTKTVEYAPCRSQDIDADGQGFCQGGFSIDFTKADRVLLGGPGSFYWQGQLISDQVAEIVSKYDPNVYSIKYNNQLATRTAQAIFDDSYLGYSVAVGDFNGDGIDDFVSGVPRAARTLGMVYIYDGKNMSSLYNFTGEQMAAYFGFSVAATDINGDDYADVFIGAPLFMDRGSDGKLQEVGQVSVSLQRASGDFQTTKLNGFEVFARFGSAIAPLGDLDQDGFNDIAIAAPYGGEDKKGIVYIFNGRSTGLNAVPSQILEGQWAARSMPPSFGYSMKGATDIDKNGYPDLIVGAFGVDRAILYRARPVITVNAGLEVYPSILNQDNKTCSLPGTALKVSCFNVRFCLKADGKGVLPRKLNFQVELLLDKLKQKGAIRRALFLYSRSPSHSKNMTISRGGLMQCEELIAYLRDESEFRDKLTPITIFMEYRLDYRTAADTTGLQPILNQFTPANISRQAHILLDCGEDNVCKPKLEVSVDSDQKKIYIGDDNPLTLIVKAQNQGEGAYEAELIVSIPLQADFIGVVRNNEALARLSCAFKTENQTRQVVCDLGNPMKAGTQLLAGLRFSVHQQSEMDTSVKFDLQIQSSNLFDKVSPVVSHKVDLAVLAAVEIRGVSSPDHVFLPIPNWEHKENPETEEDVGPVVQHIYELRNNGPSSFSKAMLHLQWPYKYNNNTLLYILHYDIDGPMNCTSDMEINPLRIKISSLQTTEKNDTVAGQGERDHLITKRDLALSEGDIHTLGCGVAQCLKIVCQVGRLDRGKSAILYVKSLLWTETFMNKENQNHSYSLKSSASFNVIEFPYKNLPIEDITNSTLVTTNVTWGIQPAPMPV
T1 sequence (P18084 24-719, chain 2 of 2): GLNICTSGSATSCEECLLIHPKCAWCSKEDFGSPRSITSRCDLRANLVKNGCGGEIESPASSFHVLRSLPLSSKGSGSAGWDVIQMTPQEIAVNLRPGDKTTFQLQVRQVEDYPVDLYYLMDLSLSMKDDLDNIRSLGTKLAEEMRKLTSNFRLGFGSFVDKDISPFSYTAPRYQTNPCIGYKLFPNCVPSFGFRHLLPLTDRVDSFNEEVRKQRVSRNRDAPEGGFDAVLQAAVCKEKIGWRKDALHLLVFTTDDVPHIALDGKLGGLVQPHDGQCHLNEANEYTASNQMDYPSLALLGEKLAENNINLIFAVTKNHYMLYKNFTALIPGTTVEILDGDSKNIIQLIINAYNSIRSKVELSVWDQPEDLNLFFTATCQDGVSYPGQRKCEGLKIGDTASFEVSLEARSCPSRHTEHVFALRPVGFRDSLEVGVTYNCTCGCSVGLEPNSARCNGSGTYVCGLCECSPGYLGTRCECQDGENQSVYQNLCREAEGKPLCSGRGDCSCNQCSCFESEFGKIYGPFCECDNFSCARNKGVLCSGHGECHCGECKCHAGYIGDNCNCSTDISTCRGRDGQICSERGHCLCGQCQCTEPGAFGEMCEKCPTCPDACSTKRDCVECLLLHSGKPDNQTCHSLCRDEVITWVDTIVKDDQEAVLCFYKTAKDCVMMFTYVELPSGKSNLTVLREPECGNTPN
METHOD_DESCRIPTION: ELISA, coated integrin, anti-MICA-HRP
MEASUREMENT_TYPE: αvβ5 signal (OD)
Entry rule: numbers only, all in OD.

I'd like to know its αvβ5 signal. The binder in question is soluble MICA generated from pKK49 (loop 3 insert extended 3.3sp) (designed binder, From pSW276 (no N-terminal His tag, Lys125); secreted by 293T cells; also called 3-3.3sp) EPHSLRYNLTVLSWDGSVQSGFLTEVHLDGQPFLRCDRQKCRAKPQGQWAEDVLGNKTWDRETRDLTGNGKDLRMTLAHIKDQKEGLHSLQEIRVCEIHEDNSTRSSQHFYYDGELFLSQNLETKEWTMPQSSRAQTLAMNVRNFLKEDAMKTKTHYHAMHADCLQELRRYLKSGVVLRRTVPPMVNVTRSEASEGNITVTCRASGFYPWNITLSWRQDGVSLSHDTQQWGDVLPDGNGTYQTWVATRISGGSGGGSRVPRGDSDLTSGGSGGGCYMEHSGNHSTHPVPSGK
0.478
